# IC50 per entry
- assayedTarget: Abl(h) (Homo sapiens, UniProt P00519)
- Sequence (P00519 whole entry): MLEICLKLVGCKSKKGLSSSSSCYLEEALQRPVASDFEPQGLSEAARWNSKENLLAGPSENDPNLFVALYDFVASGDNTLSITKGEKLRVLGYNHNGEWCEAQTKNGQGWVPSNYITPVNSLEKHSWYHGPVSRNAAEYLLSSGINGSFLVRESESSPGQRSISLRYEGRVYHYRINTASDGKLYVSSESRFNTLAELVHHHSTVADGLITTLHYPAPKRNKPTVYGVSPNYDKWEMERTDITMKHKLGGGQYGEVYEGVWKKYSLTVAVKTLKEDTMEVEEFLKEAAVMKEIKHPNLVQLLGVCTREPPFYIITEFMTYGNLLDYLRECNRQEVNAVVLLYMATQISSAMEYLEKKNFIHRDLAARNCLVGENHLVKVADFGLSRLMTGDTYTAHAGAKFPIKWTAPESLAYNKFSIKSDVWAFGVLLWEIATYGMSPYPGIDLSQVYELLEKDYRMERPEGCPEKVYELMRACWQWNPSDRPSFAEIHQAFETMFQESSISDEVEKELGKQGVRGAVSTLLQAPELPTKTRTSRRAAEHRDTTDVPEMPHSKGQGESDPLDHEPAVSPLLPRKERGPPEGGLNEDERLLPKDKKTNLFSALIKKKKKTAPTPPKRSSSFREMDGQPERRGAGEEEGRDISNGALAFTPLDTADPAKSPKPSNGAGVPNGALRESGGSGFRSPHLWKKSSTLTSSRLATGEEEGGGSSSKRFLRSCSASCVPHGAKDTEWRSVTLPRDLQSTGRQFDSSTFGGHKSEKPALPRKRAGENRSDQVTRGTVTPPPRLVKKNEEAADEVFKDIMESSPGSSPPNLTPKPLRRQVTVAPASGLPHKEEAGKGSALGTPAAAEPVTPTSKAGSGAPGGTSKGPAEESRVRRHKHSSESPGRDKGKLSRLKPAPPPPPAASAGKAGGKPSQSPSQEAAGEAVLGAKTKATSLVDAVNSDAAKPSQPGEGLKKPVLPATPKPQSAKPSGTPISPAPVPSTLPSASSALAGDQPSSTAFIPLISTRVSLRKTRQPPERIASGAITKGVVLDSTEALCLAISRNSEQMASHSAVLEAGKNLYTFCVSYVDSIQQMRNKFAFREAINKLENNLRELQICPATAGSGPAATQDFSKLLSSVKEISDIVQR
- measurementProtocol: KinaseProfiler kinase assay
- Format: biochemical
- experimentalParameters: read-out: IC50 (nM) Abl (h)
Put down the number, then write its unit next to it.

Examples with answers:
compound=C/C=C/c1cc(Nc2cc(N3CCNCC3)nc(Oc3ccc4[nH]c(C)cc4c3F)n2)n[nH]1 assayedtarget="Abl(h) (Homo sapiens, UniProt P00519)" propertyname=IC50 valueobserved="0.3 nM"
compound=Cc1cc2c(F)c(Oc3nc(Nc4cc(C5CC5)[nH]n4)cc(N4CCNCC4)n3)cc(F)c2[nH]1 assayedtarget="Abl(h) (Homo sapiens, UniProt P00519)" propertyname=IC50 valueobserved="0.2 nM"
compound=Cc1cc2c(F)c(Oc3nc(Nc4cc(C5CC5)[nH]n4)cc(N4CCNCC4)n3)ccc2[nH]1 assayedtarget="Abl(h) (Homo sapiens, UniProt P00519)" propertyname=IC50 valueobserved="0.5 nM"
compound=Cc1cc2c(F)c(Oc3nc(Nc4cc(C5CC5)[nH]n4)cc(N4CCN(CCO)CC4)n3)ccc2[nH]1 assayedtarget="Abl(h) (Homo sapiens, UniProt P00519)" propertyname=IC50 valueobserved="0.5 nM"
compound=Cc1cc2c(F)c(Oc3nc(Nc4cc(C5CC5)[nH]n4)cc(N4CCN(C)CC4)n3)ccc2[nH]1 assayedtarget="Abl(h) (Homo sapiens, UniProt P00519)" propertyname=IC50 valueobserved="0.5 nM"

As a next step, examine the compound that follows.
Request: Need IC50 of "C/C=C/c1cc(Nc2cc(N3CCN(CCO)CC3)nc(Oc3cc(F)c4[nH]c(C)cc4c3F)n2)n[nH]1" , thanks.
Response: 1 nM
